System: MDA-MB-468 breast
Experimental Protocol: NCI tumour cell line growth inhibition, 48 h; in the data active = GI50 below about 0.43 µM; inactive = the rest
// one of 1 = active, 0 = inactive, no free text

Molecule	Class Assignment
O=C(/C=C/c1ccc(Cl)cc1)c1nc2ccccc2n1Cc1ccc(F)cc1	0
CN1c2ccccc2C(C)(C)C12C=Cc1cc(O)ccc1O2 (stereo not drawn)	0
COc1cc(Nc2ccnc(NCCCNc3ccnc4cc(Cl)ccc34)n2)cc(OC)c1	0
O=C(/C=C/c1cc([N+](=O)[O-])ccc1Cl)c1ccccc1	0
CCC1CCc2nc3sc(C(=O)Nc4cccc(F)c4)c(N)c3cc2C1 (stereo not drawn)	0
O=C(NCc1ccc(Cn2c(=O)sn(-c3ccccc3)c2=O)cc1)OCc1ccc2c(Br)cc(Br)c(O)c2n1	0

Exam item: Identify the outcome logged in this assay for the molecule shown: `COc1ccc(Cn2cc3c(c2-c2ccc(OC)cc2)CCc2cnoc2-3)cc1`
Marked response: 1

Exam item: Next record, please: `CN1CCN(c2ccc3nc(-c4ccc5nc(-c6ccc(OCCC(C)(C)C)cc6)[nH]c5c4)[nH]c3c2)CC1`
Marked response: 0

----------
System: MDA-MB-468 breast
Experimental Protocol: NCI tumour cell line growth inhibition, 48 h; in the data active = GI50 below about 0.43 µM; inactive = the rest
// one of active, inactive, no free text

As a guide, the following entries are already answered.
Compound	Class Assignment
CC[C@@H](C(=O)[C@@H](C)[C@@H](O)[C@H](C)[C@@H]1O[C@@H]([C@@H](CC)C(=O)N(CC)CC)CC[C@@H]1C)C1O[C@]2(C=CC(=O)[C@]3(CC[C@@](C)([C@H]4CC[C@](O)(CC)[C@H](C)O4)O3)O2)[C@H](C)C[C@@H]1C (stereo not given in full)	inactive
CC(=Nc1ccccc1)C1=C(O)C(Cc2ccccc2)NC1=O (stereo not given)	active
Oc1[nH]c2ccc(Cl)cc2c1/C=c1/ccc2c(c1)N=C(c1ccc(F)cc1)N=2	inactive
O=C1/C(=C/c2ccc(Cl)cc2)N=C(c2ccccc2)N1CCc1cccs1	inactive

// next entry
Exam item: Identify the outcome logged in this assay for the compound shown: `Fc1ccc(Nc2nc3nonc3nc2Nc2ccc(F)cc2)cc1`
Marked response: active

----------
Tested on: MDA-MB-468 breast
Experimental Protocol: NCI tumour cell line growth inhibition, 48 h
Measure: TGI (µM)
Just the number please, in µM, no unit attached.

Consider the following illustrative entries.
Structure Smiles	TGI (µM)
CCNC(=O)c1cc2c(-c3cc(C(C)(C)O)ccc3Oc3c(C)cc(F)cc3C)cn(C)c(=O)c2[nH]1	7.45
Cc1ccc2ccc3ccc(C)nc3c2n1.Cc1ccc2ccc3ccc(C)nc3c2n1.Oc1c(Cl)cc(Cl)c2ccc(CN3CCCCC3)nc12.[Ru]	0.875
O=[N+]([O-])c1c(Br)sc(Br)c1[N+](=O)[O-]	2.91
CCCCCCCCCCCCCC[n+]1ccc2c(C)c3c(c(C)c2c1)c1cc(O)ccc1n3CC	0.654
Cc1cccc2c(=O)c3c(sc12)c(NCCNCCO)nc1ccccc13	2.5

With those in mind, consider the next compound.
Exam item: Value lookup for TGI; key = `O=C(CSc1nnc(-c2ccc(-c3nc4ccc(Cl)cc4[nH]3)cc2)o1)Nc1ccc(Br)cc1`
Marked response: 9.97

----------
System: SF-539 CNS
Experimental Protocol: NCI tumour cell line growth inhibition, 48 h
# TGI values compiled below
Just the number please, in µM, no unit attached.

Structure Smiles	TGI / µM
O=C(CSc1nnc(-c2ccc(-c3nc4ccc(Cl)cc4[nH]3)cc2)o1)Nc1ccc(Br)cc1	3.08

Exam item: Value lookup for TGI; key = `O=C(/C=C/c1ccc(Cl)cc1)c1nc2ccccc2n1Cc1ccc(F)cc1`
Marked response: 27.9

Exam item: Next record, please: `O=C(N=Nc1c(O)[nH]c2ccc(Br)cc12)c1ccc2nc(-c3ccccc3)[nH]c2c1`
Marked response: 3.43
